Taken from PubChem BioAssay (NCI).

Tested on: SK-MEL-28 melanoma
Assay: NCI-60 one-dose screen, 48 h (100 = growth as untreated, 0 = no growth, -100 = all killed)
Details: 10 µM unless noted
About 83,000 compounds went through this panel and 20% of them were active in at least one assay; those are over-represented in the sample as a whole.
// growth lookup, one value per entry
Field: numeric (%). Do not append units.

// Cc1c(C)c2c(c(C)c1OC(=O)CCC(=O)[O-])CCC(C)(CCCCCCCCCCC[P+](c1ccccc1)(c1ccccc1)c1ccccc1)O2 (stereo not drawn) : growth value = -77.3

// `C#CC#CC#CC#CC#CC#CC#CC#CC[C@@H]1OC[C@H](COC(=O)O[C@@H](C(=O)O[C@H]2C[C@@]3(O)[C@@H](OC(=O)c4ccccc4)[C@@H]4[C@]5(OC(C)=O)CO[C@@H]5C[C@H](O)[C@@]4(C)C(=O)[C@H](OC(C)=O)C(=C2C)C3(C)C)[C@@H](NC(=O)c2ccccc2)c2ccccc2)O1` : growth value = 52.2

// `C#CCOc1cccc(Nc2c(Cl)c(CCl)nc3ccc(Oc4ccccc4)cc23)c1` : growth value = 65.4

====

Tested on: SW-620 colon
Assay: NCI-60 one-dose screen, 48 h (100 = growth as untreated, 0 = no growth, -100 = all killed)
Settings: 10 µM unless noted
About 83,000 compounds went through this panel and 20% of them were active in at least one assay; those are over-represented in the sample as a whole. Calls of active or inactive are those of the source. The calls were made as follows: active = growth percent below 10; inactive = the rest.
PARAMETER MEASURED: growth

Solved entries (count: 4):
COMPOUND: CC(C)(C)n1cc(-c2ccnc(NCCNS(=O)(=O)c3ccc(C(F)(F)F)cc3)c2)c(-c2ccccc2)n1
PARAMETER MEASURED: growth
REPORTED MEASUREMENT: 99.2% (inactive)
//
COMPOUND: Cc1cc(N2CCOCC2)nc(N(CCCNc2ccnc3cc(Cl)ccc23)Cc2ccc3c(c2)OCO3)n1
PARAMETER MEASURED: growth
REPORTED MEASUREMENT: -3.78% (active)
//
COMPOUND: CCOC(=O)c1c(Nc2nc3ccccc3s2)sc2c1CCC(=O)C2
PARAMETER MEASURED: growth
REPORTED MEASUREMENT: 19.4% (inactive)
//
COMPOUND: Cn1cc(-c2csc(-c3cn(CCO)c4ccc(F)cc34)n2)c2cccnc21
PARAMETER MEASURED: growth
REPORTED MEASUREMENT: 29.8% (inactive)

// COc1ccc(C2=NN(C=O)C(c3ccc(Oc4nc5c(c(=O)n(C)c(=O)n5C)n4C)c(OC)c3)C2)cc1 (stereo not given) : growth value = 104% (inactive)

// `C[C@@H]1N=C(c2ccc(Cl)cc2Cl)Nc2nc3ccccn3c2C1=O` : growth value = 25.2% (inactive)

// `C=CCNc1ccc2c3c(cccc13)C(=O)N(CC=C)C2=O` : growth value = 108% (inactive)

// `CCOC(=O)c1c2c(n3ccc(NC(=O)CCN4CCCC4)cc13)C(=O)c1ncccc1C2=O` : growth value = -82.9% (active)

====

Tested on: KM12 colon
Experiment: NCI-60 one-dose screen, 48 h (100 = growth as untreated, 0 = no growth, -100 = all killed)
Conditions: 10 µM unless noted
This is part of a sample that, as a whole, favours compounds with a hit. Of some 83,000 tested, about 20% had one in any assay.
PARAMETER MEASURED: growth (%)
Field: numeric (%). Do not append units.

Solved entries (count: 3):
COMPOUND: CCCn1cnc2c(c1=N)C(c1ccc(Cl)cc1)c1sc3c(F)cccc3c1O2 (stereo not given)
REPORTED MEASUREMENT: 66.6
--
COMPOUND: CC(=O)OCCOc1cc(Cl)c(Cl)cc1Cl
REPORTED MEASUREMENT: 103
--
COMPOUND: Cc1ccc2nc(/C=C/c3ccc(N(C)C)cc3)cc(C)c2c1
REPORTED MEASUREMENT: 21.5

// `Cc1ccc(Nc2nc(N)nc(N)c2N=O)cc1Cl` : growth value = 80.6

// `CCOC(=O)C#Cc1c(CC(=O)OCC)nnn1[C@H]1O[C@@H](CO)[C@@H]2OC(C)(C)O[C@@H]21` : growth value = 103

// `O=C(CSc1nc(-c2ccccc2)cn1-c1ccc(Cl)cc1)c1ccc([N+](=O)[O-])cc1` : growth value = 82.6

// `Cn1cc(-c2csc(-c3cn(C)c4ccc(F)cc34)n2)c2cnccc21` : growth value = 0.588

// N#C/C(=C\c1cccc2cnccc12)N1N=NC2C=CC=CC21 (stereo not given) : growth value = 43.5

// `COc1cc(NC(=O)c2cncnc2Nc2ccc3c(ccn3Cc3cccc(F)c3)c2)cc(OC)c1` : growth value = 34.8

// `CCN(CC)CCN1C(=O)c2c(c(C)c3c(oc4cc(OC)ccc43)c2C)C1=O` : growth value = 102

====

Test system: UACC-257 melanoma
Experiment: NCI-60 one-dose screen, 48 h
Settings: 10 µM unless noted
About 83,000 compounds went through this panel and 20% of them were active in at least one assay; those are over-represented in the sample as a whole. Activity calls are given as the source filed them. The calls were made as follows: active = growth percent below 10; inactive = the rest.
Just give me one of these, please: active, inactive

Sample answers from the record:
COMPOUND: Cc1c(C)c2c(c(C)c1OC(=O)CCC(=O)[O-])CCC(C)(CCCCCCCCCCC[P+](c1ccccc1)(c1ccccc1)c1ccccc1)O2 (configuration not stated)
LABEL: active
--
COMPOUND: CCN1C(=O)N(CC)C2C1NN=c1s/c(=C\c3ccccc3)c(=O)n12 (configuration not stated)
LABEL: inactive
--
COMPOUND: Cc1ccc(-c2nnc(SCc3nc(N)nc(Nc4ccccc4F)n3)n2-c2ccccc2)cc1
LABEL: inactive
--
COMPOUND: CC(C)c1nc(N(C)S(C)(=O)=O)nc(-c2ccc(F)cc2)c1/C=C/C(=O)C[C@@H](O)CC(=O)O
LABEL: inactive
--
COMPOUND: CO[C@H]1CC(c2ccc[nH]2)=N[C@]12O[C@@H](C)C[C@@H]1CCCCCCCc3ccc([nH]3)[C@H]12
LABEL: inactive

Tell me the assay call for `CC(=O)Oc1ccccc1C(=O)N(Cc1ccc2c(Cl)cc(Cl)c(O)c2n1)c1ccccc1` please.
inactive

Tell me the assay call for `C#C[C@]1(O)CC[C@H]2[C@@H]3CC=C4c5sc(-c6cccc(C)c6)nc5CC[C@]4(C)[C@H]3CC[C@@]21C` please.
inactive

Tell me the assay call for `CCOC(=O)/C=C1\S/C(=N\Nc2cc(=O)[nH]c3ccc(OC)cc23)N(c2ccccc2)C1=O` please.
inactive

====

System: MOLT-4 leukemia
Assay: NCI-60 one-dose screen, 48 h (100 = growth as untreated, 0 = no growth, -100 = all killed)
Settings: 10 µM unless noted
About 83,000 compounds went through this panel and 20% of them were active in at least one assay; those are over-represented in the sample as a whole.
// growth lookup, one value per entry
Field: numeric (%). Do not append units.

COMPOUND: C#C[C@]1(O)CC[C@H]2[C@@H]3CC=C4c5sc(-c6ccccc6)nc5CC[C@]4(C)[C@H]3CC[C@@]21C
TARGET: MOLT-4 leukemia
growth, %: 63.8
//
COMPOUND: O=C1C2C(c3cccs3)C=C(c3ccc(Cl)cc3)N2C(=S)N1c1ccccc1 (stereo unspecified)
TARGET: MOLT-4 leukemia
growth, %: 95.4
//
COMPOUND: O=C1C(Nc2ccc(Br)cc2)=C(I)C(=O)c2ncccc21
TARGET: MOLT-4 leukemia
growth, %: -2.02
//
COMPOUND: CN1CCN(Cc2ccc(NC(=O)c3cncc(C#Cc4cnc(N)c5ncccc45)c3)cc2Cl)CC1
TARGET: MOLT-4 leukemia
growth, %: 83
//
COMPOUND: CCOC(=O)/C(=C\c1ccccc1Cl)P(=O)(OCC)OCC
TARGET: MOLT-4 leukemia
growth, %: 25.1
//
COMPOUND: CCc1ccc(Cc2cnc(NC(=O)c3cc(C)oc3C)s2)cc1
TARGET: MOLT-4 leukemia
growth, %: 29.2

Lab entry: MOLT-4 leukemia assay, compound `O=C1C(c2c(O)[nH]c3ncccc23)=Nc2ccccc21` , growth = 85.4

Lab entry: MOLT-4 leukemia assay, compound COc1ccc(C2CC(=O)Oc3c(OC)c4c(c(OC)c32)OCO4)cc1 (stereo unspecified) , growth = 96.3

Lab entry: MOLT-4 leukemia assay, compound `CC(=O)O[C@H]1C[C@@]2(C)[C@@H](C[C@@H](O)[C@H]3[C@@]4(C)CC[C@H](N5CCCC5)[C@@H](C)[C@@H]4CC[C@@]32C)/C1=C(\CCC=C(C)C)C(=O)O` , growth = -57.9

Lab entry: MOLT-4 leukemia assay, compound `C#CCOc1cc(/C=N/Nc2nc(-c3ccc(OC)cc3)cs2)ccc1O` , growth = 87.3

Lab entry: MOLT-4 leukemia assay, compound `NCCCCCNc1noc(Cc2c[nH]c3cc(Br)ccc23)n1` , growth = 29.3

Lab entry: MOLT-4 leukemia assay, compound `COc1ccc(NC(=O)c2ccc(Cl)cc2Cl)cc1` , growth = 107

Lab entry: MOLT-4 leukemia assay, compound `COc1nc2ccccc2cc1/C=[N+](\[O-])c1ccccc1` , growth = 29.5

Lab entry: MOLT-4 leukemia assay, compound Cc1ccc2c(c1)CC(O)CC1C(=O)N(CCO)CC(=O)N21 (stereo unspecified) , growth = 92.2

Lab entry: MOLT-4 leukemia assay, compound `C#CCOc1cccc(-c2ncnc3cc(NC(=O)CCl)ccc23)c1` , growth = -6.64

Lab entry: MOLT-4 leukemia assay, compound `Cn1cc(-c2nc(-c3c[nH]c4ccncc34)cs2)c2cc(F)ccc21` , growth = -58.3

Lab entry: MOLT-4 leukemia assay, compound `COC(=O)c1ccc(-n2cc(CCCOS(=O)(=O)c3ccc(F)cc3)nn2)cc1` , growth = 95.7

Lab entry: MOLT-4 leukemia assay, compound `C#CCOc1cccc(Nc2c(Cl)c(CCl)nc3ccc(Oc4ccccc4)cc23)c1` , growth = 14

Lab entry: MOLT-4 leukemia assay, compound `COC(=O)[C@H]1Cc2c([nH]c3ccccc23)[C@H](c2ccc3c(c2)OCO3)N1` , growth = 100

Lab entry: MOLT-4 leukemia assay, compound `CCN(CC)c1ccc(/C=N/NC(=O)c2ccccc2Nc2ccnc(C(F)(F)F)c2)c(O)c1` , growth = 59.6

Lab entry: MOLT-4 leukemia assay, compound `COc1ccc(-c2cn(Cc3ccc4c(Br)cc(Br)c(O)c4n3)nn2)cc1` , growth = 87
